# test.protocol: acute toxicity in mice by oral administration
# test.settings: mouse, in vivo
metric: LD50

Query LD50 for CCCC[C@H]1CC[C@H]([C@H](O)/C=C/[C@H]2[C@H](O)CC(=O)[C@@H]2CC(=O)CCCCC(=O)O)C1 [6-keto-16S,18S-ethano-20-ethyl-PGE1]
> 3 mg/kg
